Tested on: OVCAR-5 ovarian
Test: NCI tumour cell line growth inhibition, 48 h; in the data active means GI50 below about 0.43 µM; inactive means the rest
Permitted responses: yes for active, no for inactive

COMPOUND	ASSAYED SYSTEM	CLASS NAME
C=C1SC(=Nc2ccccc2Cl)N(C(=O)c2sc3ccccc3c2Cl)C1(C)C	OVCAR-5 ovarian	no
CN(C)c1ccc2cc(-c3cc4c(oc3=O)-c3ccccc3OC4O)c(=O)oc2c1 (stereo not drawn)	OVCAR-5 ovarian	no
C#Cc1cccc(Nc2ncnc3ccc(-c4cnc(Cl)c(NS(C)(=O)=O)c4)cc23)c1	OVCAR-5 ovarian	yes
O=c1ccccc(-c2ccc(-c3ccco3)cc2)c1O	OVCAR-5 ovarian	no

Identify the outcome logged in this assay for the compound shown: Cc1cccc2c1NC(=O)[C@@]21[C@H](C(=O)c2ccccc2)[C@]2(C(=O)Nc3ccccc32)[C@H]2CCCN21
no

---

System: OVCAR-4 ovarian
Assay: NCI tumour cell line growth inhibition, 48 h
For each of the compounds below, state its TGI.
Give bare numbers, in µM.

STRUCTURE STRING	UNIT STRING	TGI
O=C1/C(=C/c2ccccc2Br)COc2ccc(O)c(O)c21	µM	10.2

Item CCOC(=O)C#Cc1ccc([N+](=O)[O-])cc1 has what recorded TGI?
23.3

---

Please go through the items and note down their TGI.
Tested on: HS 578T breast
Test: NCI tumour cell line growth inhibition, 48 h

Known TGI results, listed for orientation:
MOLECULE	TGI
COc1ccc(CCCC(=O)O)c(C)c1	> 100 µM
CCOC(=O)c1cc(=O)oc2c1N(C)c1ncccc1N2	> 100 µM
CCC(c1ccc(OC)cc1)C(CC)c1ccc(O)c(CN2CCCC2)c1 (configuration not stated)	23.8 µM
COc1cc2cc(C(=O)N3CC(CCl)c4c3cc(N(C)C)c3ccccc43)[nH]c2c(OC)c1OC (configuration not stated)	0.135 µM
COc1ccc(-n2c3c(c4c(CN(C)C)c(O)ccc42)C(=O)c2ccccc2C3=O)cc1	> 100 µM

List TGI for every entry below, keeping the order given.
1. c1ccc(/N=C2\c3ccccc3CN2c2ccccn2)nc1
2. Nc1nc(N)c2nnn(C[C@H]3CC[C@@H](CO)C3)c2n1

> 100 µM
> 100 µM

---

Tested on: CAKI-1 renal
Assay: NCI tumour cell line growth inhibition, 48 h; in the data active = GI50 below about 0.43 µM; inactive = the rest
Respond only with the outcome that fits, drawn from active, inactive

Here are 8 compounds together with their reported answers.
COMPOUND	CLASS NAME
N#C/C(=C/C=C/c1ccccc1)S(=O)c1ccccc1 (configuration not stated)	active
Cc1ccc2c(N/N=C\c3ccco3)cc(C)nc2n1	inactive
O=C(NC1CCN(Cc2ccccc2)CC1)c1cc(C(=O)NC2CCN(Cc3ccccc3)CC2)cc(C(=O)NC2CCN(Cc3ccccc3)CC2)c1	inactive
NC(=O)c1cc(Cl)ccc1NC(=O)c1ccccc1-c1ccccc1	inactive
COc1cc(/C=C2\CN(S(=O)(=O)c3ccc(C)cc3)C/C(=C\c3cc(CN4CCCCC4)c(O)c(OC)c3)C2=O)cc(CN2CCCCC2)c1O	inactive
C[C@@H](Oc1cc(NS(=O)(=O)N2CCC2)nc(SCc2cccc(F)c2F)n1)[C@@H](O)CO	inactive
Cc1cccc2c1O/C(=C\c1ncc([N+](=O)[O-])n1C)C2=O	active
O=C1C(Cl)=C(Nc2cccc(O)c2)C(=O)N1c1cccc(Cl)c1	inactive

Moving on to the next compound.
Could you check what this test reported for Oc1cccc(Cn2c(-c3cccc(O)c3O)nc3ccccc32)c1O ?
inactive

---

Test system: CAKI-1 renal
Test: NCI tumour cell line growth inhibition, 48 h
QUANTITY MEASURED: log10 TGI (log10 of the value in µM)
Recorded TGI (log10, µM)

A selection of reference data follows.
MOLECULE	log10 TGI
Cc1ccc(C(=O)CCC2C(=O)CC(C)(C)CC2=O)cc1	1.51
COc1ccc(Nc2nc(N)c(C(=O)c3ccccc3)s2)cc1	1.52
C=C1SC(=Nc2ccccc2Cl)N(C(=O)c2sc3ccccc3c2Cl)C1(C)C	1.29

Each molecule below has a recorded value; state its log10 TGI.
1. CCN(CC)CCOC(=O)/C(=C/c1ccc(OC)cc1)c1cc(OC)c(OC)c(OC)c1
2. CC(=O)O[C@H]1CC[C@@]2(C)C(=CC[C@@H]3[C@@H]2CC[C@]2(C)c4c(cc(C#N)c(=N)n4C(C)=O)C[C@@H]32)C1
3. O=CC1OC(=O)c2cc(O)c(O)c(O)c2-c2c(cc(O)c(O)c2O)C(=O)OC1C(O)C(O)CO (centres undefined)
4. C/C=C1\C(=O)O[C@@H]2C1C[C@@H]1O[C@H]2[C@H](C)CCC/C(C)=C/CC[C@@]1(C)O (some centres undefined)
5. CN(C1=NS(=O)(=O)N=C(N(C)c2ccccc2)O1)c1ccccc1
6. COc1cccc(-c2nc(-c3ccc(NC(=O)c4ccccc4)cc3)[nH]c2-c2ccnc(Br)c2)c1

1.58
1.98
1.56
1.19
1.66
0.90

---

Tested on: COLO 205 colon
Assay: NCI tumour cell line growth inhibition, 48 h
QUANTITY MEASURED: TGI

Consider the following illustrative entries.
COMPOUND	TGI
CN(C)c1ccc2cc(-c3cc4c(oc3=O)-c3ccccc3OC4O)c(=O)oc2c1 (centres undefined)	8.19 µM
Cc1cccc2c1NC(=O)[C@@]21[C@H](C(=O)c2ccccc2)[C@]2(C(=O)Nc3ccccc32)[C@H]2CCCN21	> 100 µM
CCC(c1ccc(OC)cc1)C(CC)c1ccc(O)c(CN2CCCC2)c1 (centres undefined)	3.71 µM
Cc1ccc(/C=N/Nc2nncc3ccccc23)s1	> 100 µM
Cc1ccc2c(N/N=C\c3ccco3)cc(C)nc2n1	3.75 µM
COC1OC(CBr)C(OC(c2ccccc2)(c2ccccc2)c2ccccc2)C(OC(c2ccccc2)(c2ccccc2)c2ccccc2)C1OC(c1ccccc1)(c1ccccc1)c1ccccc1 (centres undefined)	> 100 µM
COC(=O)[C@H](Cc1ccccc1)NP(=O)(O)OCC1OC(n2cc(C)c(=O)[nH]c2=O)CC1N=[N+]=[N-] (some centres undefined)	> 100 µM
CCOC(=O)/C(C#N)=C\C=C1/C=CNC2=NCCN21	> 100 µM

Next:
Sample CC1Cc2c(N)nc(N3CCOCC3)nc2NC1=O (centres undefined) — what was its TGI?
> 100 µM

---

Test system: HCT-116 colon
Experiment: NCI tumour cell line growth inhibition, 48 h
QUANTITY MEASURED: TGI

A selection of reference data follows.
COMPOUND	ASSAYED SYSTEM	TGI
O=C(N/N=C\c1ccc([N+](=O)[O-])cc1)Nc1cccc2ccccc12	HCT-116 colon	> 52.2 µM
CCc1n[nH]c(=O)n1NC(=O)c1ccccc1C(=O)O	HCT-116 colon	> 100 µM
O=C1c2cccc3cc([N+](=O)[O-])cc(c23)C(=O)N1CCN1CCCC1	HCT-116 colon	> 100 µM

# per-item lookup of TGI; items listed below
1. Oc1cccc(Cn2c(-c3cccc(O)c3O)nc3ccccc32)c1O
2. C[C@@H](Oc1cc(NS(=O)(=O)N2CCC2)nc(SCc2cccc(F)c2F)n1)[C@@H](O)CO
3. COc1cc(/C=C/C(=O)N[C@@H]2C(=O)N3[C@@H]2SC(C)(C)[C@@H]3C(=O)O)cc(OC)c1OC
4. CC(=O)Nc1ccc2oc(=O)c3ccccc3c2c1
5. Fc1cc(-c2ncc(Cl)cc2Cl)c2cccccc1-2
6. C[Si](C)(C)/C=C\CCCN1C(=O)CCC1=O

1. 10.9 µM
2. > 100 µM
3. > 100 µM
4. > 100 µM
5. > 100 µM
6. > 100 µM

Hey, can you go through the list below and give me TGI for every item?
1. CCCC#CC(O)(C(=O)OC1CCN(C)CC1)C1CCCCC1 (stereo unspecified)
2. CC(C(=O)c1ccccc1)C1(O)C(=O)Nc2ccccc21 (stereo unspecified)

1. > 100 µM
2. > 100 µM

---

Test system: IGROV1 ovarian
Assay: NCI tumour cell line growth inhibition, 48 h; in the data active = GI50 below about 0.43 µM; inactive = the rest
Choose the fitting class; nothing outside 1 (active), 0 (inactive) is accepted.

Check out these entries, answers already filled in.
COMPOUND	CLASS NAME
COc1ccc(-c2csc(NC(=O)N3CCN(c4cc5c(cc4F)c(=O)c(C(=O)O)cn5C4CC4)CC3)n2)cc1	0
C/C=C1\C(=O)O[C@@H]2C1C[C@@H]1O[C@H]2[C@H](C)CCC/C(C)=C/CC[C@@]1(C)O (stereo not given in full)	0

Assay outcome for CNC(=O)c1cncc(/C=C/c2c(C)cccc2C)c1 : what was it?
0

Hi, do you know how NC(=O)c1cc(Cl)ccc1NC(=O)c1ccccc1-c1ccccc1 came out in this test?
0

---

Give measured TGI for each item. Keep answers brief.
System: EKVX NSCLC
Assay: NCI tumour cell line growth inhibition, 48 h
Where a SMILES comes first, the peptide text is derived from it. [ ]: non-standard residue; d: D form. The star is where a group is joined. ξ: configuration not given here. Propanoyl(3-(4-MeO-Ph)) = COc1ccc(CCC(=O)*)cc1; Thr(3ξ) = CC(O)[C@H](N)C(=O)O; dNMeL = CN[C@H](CC(C)C)C(=O)O; OBn = c1ccc(CO*)cc1; ξLac = CC(O)C(=O)O

Example cases with answers are listed next.
MOLECULE	TGI
CC1(C)N=C(/C=N/O)C(C)(C)N1O	> 100 µM
N=c1oc2ccc(Cl)cc2cc1C(=O)NCc1ccccc1	> 100 µM
O=S(=O)(NCCCNc1cc(-c2cn(-c3ccccc3)nc2-c2cccc(O)c2)ccn1)c1cccc2ccccc12	> 100 µM
CC(=O)Nc1ccc2oc(=O)c3ccccc3c2c1	> 100 µM
CC(=O)c1c(-c2ccccc2)c(-c2ccc(OCCN(C)C)cc2)n2ccccc12	43.8 µM

I'm hoping you can list TGI for every molecule here, please.
1. COc1ccc(CCCC(=O)O)c(C)c1
2. COc1ccc(CCC(=O)OC(C)[C@H](NC(=O)[C@@H](CC(C)C)N(C)C(=O)[C@@H]2CCCN2C(=O)C(C)O)C(=O)OCc2ccccc2)cc1 (stereo partly specified) (H-[ξLac]P[dNMeL][Thr(3ξ)](Propanoyl(3-(4-MeO-Ph)))-OBn)
3. N/C(=N\c1nc2ccccc2s1)NC(=O)Nc1ccccc1Cl
4. COc1cc2c(cc1OC)C(Cc1ccccc1CCCl)=NCC2
5. C[Si](C)(C)/C=C\CCCN1C(=O)CCC1=O

1: > 100 µM; 2: > 100 µM; 3: > 100 µM; 4: > 100 µM; 5: > 100 µM
